Experimental system: Menin MLL 4-43 (Homo sapiens)
Sequence (O00255 whole entry): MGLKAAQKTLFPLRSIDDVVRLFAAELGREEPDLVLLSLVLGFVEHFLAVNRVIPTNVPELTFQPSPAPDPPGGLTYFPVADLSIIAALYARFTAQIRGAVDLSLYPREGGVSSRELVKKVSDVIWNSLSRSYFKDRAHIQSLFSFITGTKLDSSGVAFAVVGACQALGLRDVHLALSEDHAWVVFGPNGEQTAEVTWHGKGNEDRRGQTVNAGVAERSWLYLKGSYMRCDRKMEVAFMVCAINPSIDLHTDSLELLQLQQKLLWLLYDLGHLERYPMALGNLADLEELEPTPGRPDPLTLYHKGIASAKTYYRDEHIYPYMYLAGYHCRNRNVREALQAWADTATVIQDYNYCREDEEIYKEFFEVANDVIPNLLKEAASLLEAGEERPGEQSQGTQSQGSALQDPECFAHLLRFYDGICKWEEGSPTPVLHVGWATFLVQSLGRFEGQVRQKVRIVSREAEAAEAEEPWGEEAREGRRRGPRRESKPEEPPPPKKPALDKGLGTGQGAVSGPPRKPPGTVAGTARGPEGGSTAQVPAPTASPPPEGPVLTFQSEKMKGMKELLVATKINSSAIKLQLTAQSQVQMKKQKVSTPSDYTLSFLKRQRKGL
Assay comment: Fluorescence polarization (FP) competition assay of the menin-MLL interaction
Assay type: binding
Test parameters: fluorescence polarization assay; read-out: Menin MLL 4-43 IC50
Observed property: IC50

Take a look at these entries with their results.
• CNc1nc(NC2CCN(Cc3ccc4c(cc(C#N)n4C[C@H](C)N4CCS(=O)(=O)CC4)c3C)CC2)c2cc(CC(F)(F)F)sc2n1 = < 0.05 µM
• COc1nc(NC2CCN(Cc3ccc4c(cc(C#N)n4C[C@H](C)N4CCN(S(C)(=O)=O)CC4)c3C)CC2)c2cc(CC(F)(F)F)sc2n1 = < 0.05 µM

Consider the record given below.
Item `Cc1c(CN2CCC(Nc3ncnc4sc(CC(F)(F)F)cc34)CC2)ccc2c1cc(C#N)n2C[C@H](C)N1CCN(C2=NCCO2)CC1` has what recorded IC50?
0.05 to 0.25 µM

====

Experimental system: Menin MLL 4-43 (Homo sapiens)
Assay comment: Fluorescence polarization (FP) competition assay of the menin-MLL interaction
Assay type: binding
Test parameters: fluorescence polarization assay; read-out: Menin MLL 4-43 IC50
Observed property: IC50

- Cc1c(CN2CCC(Nc3ncnc4sc(CC(F)(F)F)cc34)CC2)ccc2c1cc(C#N)n2C[C@H](C)N1CCN(CC(N)=O)CC1: < 50 nM
- CNC(=O)CN1CCN([C@@H](C)Cn2c(C#N)cc3c(C)c(CN4CCC(Nc5nc(N)nc6sc(CC(F)(F)F)cc56)CC4)ccc32)CC1: < 50 nM
- C/C=C(\C#N)C(=O)Nc1ccc(CCn2c(C#N)cc3c(C)c(CN4CCC(Nc5ncnc6sc(CC(F)(F)F)cc56)CC4)ccc32)cc1: 50 to 250 nM
- Cc1c(CN2CCC(Nc3ncnc4sc(CC(F)(F)F)cc34)CC2)ccc2c1cc(C#N)n2C[C@@H](C)N1CCN(S(=O)(=O)CF)CC1: > 1000 nM
- CNC(=O)C1CCN(C(C)Cn2c(C#N)cc3c(C)c(CN4CCC(Nc5ncnc6sc(CC(F)(F)F)cc56)CC4)ccc32)CC1 (stereo not drawn): 50 to 250 nM

Consider the record given below.
# returns recorded IC50 (system: Menin MLL 4-43 (Homo sapiens)) for `CNC(=O)CC1CCN([C@@H](C)Cn2c(C#N)cc3c(C)c(CN4CCC(Nc5nc(C)nc6sc(CC(F)(F)F)cc56)CC4)ccc32)CC1`
< 50 nM

====

molecules and their reported IC50
Experimental system: Menin MLL 4-43 (Homo sapiens)
Assay comment: Fluorescence polarization (FP) competition assay of the menin-MLL interaction
Format: binding
Test parameters: fluorescence polarization assay; read-out: Menin MLL 4-43 IC50

Take a look at these entries with their results.
- Cc1nc(NC2CCN(Cc3ccc4c(cc(C#N)n4C[C@H](C)N4CCC(CC(=O)N(C)C)CC4)c3C)CC2)c2cc(CC(F)(F)F)sc2n1: < 50 nM
- CNc1nc(NC2CCN(Cc3ccc4c(cc(C#N)n4CC(C)c4ccc(=O)[nH]c4)c3C)CC2)c2cc(CC(F)(F)F)sc2n1 (stereo not drawn): < 50 nM
- Cc1c(CN2CCC(Nc3nc(CO)nc4sc(CC(F)(F)F)cc34)CC2)ccc2c1cc(C#N)n2C[C@H](C)N1CCN(S(C)(=O)=O)CC1: < 50 nM
- Cc1c(CN2CCC(Nc3ncnc4sc(CC(F)(F)F)cc34)CC2)ccc2c1cc(C#N)n2C[C@H](C)N1CCN(S(=O)(=O)CC(F)(F)F)CC1: 50 to 250 nM
- Cc1c(CN2CCC(Nc3nc(N)nc4sc(CC(F)(F)F)cc34)CC2)ccc2c1cc(C#N)n2C[C@H](C)N1CCN(CC(N)=O)CC1: < 50 nM
- Cc1c(CN2CCC(Nc3ncnc4sc(CC(F)(F)F)cc34)CC2)ccc2c1cc(C#N)n2C[C@@H](C)N1C[C@@H](C)N(S(C)(=O)=O)[C@H](C)C1: 50 to 250 nM
- CNc1nc(NC2CCN(Cc3ccc4c(cc(C#N)n4C[C@H](C)N4CCC(F)(F)CC4)c3C)CC2)c2cc(CC(F)(F)F)sc2n1: 50 to 250 nM
- Cc1c(CN2CCC(Nc3ncnc4sc(CC(F)(F)F)cc34)CC2)ccc2c1cc(C#N)n2CC(C)N1CCN(C=O)CC1 (stereo not drawn): < 50 nM

# returns recorded IC50 (system: Menin MLL 4-43 (Homo sapiens)) for `Cc1c(CN2CCC(Nc3ncnc4sc(CC(F)(F)F)cc34)CC2)ccc2c1cc(C#N)n2CCc1ccc(NC(=O)CC#N)cc1`
50 to 250 nM

# returns recorded IC50 (system: Menin MLL 4-43 (Homo sapiens)) for `Cc1c(CN2CCC(Nc3ncnc4sc(CC(F)(F)F)cc34)CC2)ccc2c1cc(C#N)n2C[C@H](C)N1CCN(S(C)(=O)=O)[C@H](C(N)=O)C1`
< 50 nM

# returns recorded IC50 (system: Menin MLL 4-43 (Homo sapiens)) for `Cc1c(CN2CCC(Nc3ncnc4sc(CC(F)(F)F)cc34)CC2)ccc2c1cc(C#N)n2CCN1CCC2(CC1)CCN(S(C)(=O)=O)C2`
20 to 1000 nM

# returns recorded IC50 (system: Menin MLL 4-43 (Homo sapiens)) for `CNc1nc(NC2CCN(Cc3ccc4c(cc(C#N)n4C[C@H](C)N4CCC(CC(N)=O)CC4)c3C)CC2)c2cc(CC(F)(F)F)sc2n1`
< 50 nM

# returns recorded IC50 (system: Menin MLL 4-43 (Homo sapiens)) for `CNS(=O)(=O)N1CCN([C@@H](C)Cn2c(C#N)cc3c(C)c(CN4CCC(Nc5nc(N)nc6sc(CC(F)(F)F)cc56)CC4)ccc32)CC1`
< 50 nM

# returns recorded IC50 (system: Menin MLL 4-43 (Homo sapiens)) for `CNc1nc(NC2CCN(Cc3ccc4c(cc(C#N)n4C[C@H](C)N4CCC(CC(=O)N(C)C)CC4)c3C)CC2)c2cc(CC(F)(F)F)sc2n1`
< 50 nM

# returns recorded IC50 (system: Menin MLL 4-43 (Homo sapiens)) for `Cc1c(CN2CCC(Nc3nc(N)nc4sc(CC(F)(F)F)cc34)CC2)ccc2c1cc(C#N)n2C[C@H](C)N1CCOCC1`
50 to 250 nM

# returns recorded IC50 (system: Menin MLL 4-43 (Homo sapiens)) for Cc1c(CN2CCC(Nc3ncnc4sc(CC(F)(F)F)cc34)CC2)ccc2c1cc(C#N)n2CC(C)N1CCN(S(C)(=O)=O)C(C(=O)O)C1 (stereo not drawn)
20 to 1000 nM

# returns recorded IC50 (system: Menin MLL 4-43 (Homo sapiens)) for `Cc1nc(NC2CCN(Cc3ccc4c(cc(C#N)n4CCN4CCN(S(C)(=O)=O)CC4)c3C)CC2)c2cc(CC(F)(F)F)sc2n1`
50 to 250 nM

# returns recorded IC50 (system: Menin MLL 4-43 (Homo sapiens)) for `CNc1nc(NC2CCN(Cc3ccc4c(cc(C#N)n4C[C@H](C)N4CCN(S(=O)(=O)CC(C)C)CC4)c3C)CC2)c2cc(CC(F)(F)F)sc2n1`
< 50 nM

# returns recorded IC50 (system: Menin MLL 4-43 (Homo sapiens)) for Cc1c(CN2CCC(Nc3ncnc4sc(CC(F)(F)F)cc34)CC2)ccc2c1cc(C#N)n2CCN1CC(C)N(S(C)(=O)=O)CC1C (stereo not drawn)
20 to 1000 nM

# returns recorded IC50 (system: Menin MLL 4-43 (Homo sapiens)) for `Cc1c(CN2CCC(Nc3ncnc4sc(CC(F)(F)F)cc34)CC2)ccc2c1cc(C#N)n2C[C@H](C)N1C[C@@H](C)C(S(C)(=O)=O)[C@H](C)C1`
< 50 nM

# returns recorded IC50 (system: Menin MLL 4-43 (Homo sapiens)) for `Cc1nc(NC2CCN(Cc3ccc4c(cc(C#N)n4C[C@H](C)N4CCN(S(=O)(=O)C5CC5)CC4)c3C)CC2)c2cc(CC(F)(F)F)sc2n1`
50 to 250 nM
